Listed here: items and their measured inhibition at 10 µg/mL.
Target: human tyrosinase (Homo sapiens)
Sequence (P14679 19-529): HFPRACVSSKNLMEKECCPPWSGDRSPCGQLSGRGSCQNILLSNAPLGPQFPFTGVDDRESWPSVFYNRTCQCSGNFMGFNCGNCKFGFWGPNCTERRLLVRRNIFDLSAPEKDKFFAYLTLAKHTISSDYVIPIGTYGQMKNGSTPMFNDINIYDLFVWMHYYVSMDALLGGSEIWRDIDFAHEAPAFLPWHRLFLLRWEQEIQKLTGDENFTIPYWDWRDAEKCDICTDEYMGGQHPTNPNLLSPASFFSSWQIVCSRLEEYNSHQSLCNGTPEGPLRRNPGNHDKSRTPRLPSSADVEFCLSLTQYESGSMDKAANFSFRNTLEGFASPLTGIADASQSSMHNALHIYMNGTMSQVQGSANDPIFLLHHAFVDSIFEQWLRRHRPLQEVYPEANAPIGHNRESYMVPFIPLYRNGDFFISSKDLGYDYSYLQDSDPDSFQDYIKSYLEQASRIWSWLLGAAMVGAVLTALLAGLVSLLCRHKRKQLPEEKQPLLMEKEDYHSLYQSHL
Test: Enzyme test: conversion of L-DOPA to L-dopaquinone by a human tyrosinase (MBTH, absorption at 490 nm)
Format: biochemical
Conditions: concentration 10 μg/ml; inhibition of the tyrosinase activity; read-out: Inhibition (% of the control)
result type: inhibition at 10 µg/mL (%)

INSERT INTO measurements (molecule, numeric_readout) VALUES
  ('O=C(Nc1nc(-c2ccc(O)cc2O)cs1)C1CCCCC1', 92),
  ('CC(C)C(=O)Nc1nc(-c2ccc(O)cc2O)cs1', 94),
  ('CC(C)(C)C(=O)Nc1nc(-c2ccc(O)cc2O)cs1', 96),
  ('O=C(Cc1ccc(CO)cc1)Nc1nc(-c2ccc(O)cc2O)cs1', 88),
  ('O=C(Nc1nc(-c2ccc(O)cc2O)cs1)C1CCC(CO)CC1 (stereo not drawn)', 94),
  ('CCCCCCC(=O)Nc1nc(-c2ccc(O)cc2O)cs1', 66);

Cited source for all entries: patent US9533963B2
